test: Single oral dose pharmacokinetics of metapristone in beagle dogs, non-compartmental analysis; format: in vivo; details: beagle, dog, plasma, po; female dogs, p.o. 11.25 mg/kg
PARAMETER: Tmax (h)
Value expressed in h; do not type the unit.

So what does the record say about Tmax for CC#C[C@]1(O)CC[C@H]2[C@@H]3CCC4=CC(=O)CCC4=C3[C@@H](c3ccc(NC)cc3)C[C@@]21C ?
1.67
